# experimental_target: Savinase (Lederbergia lenta)
# Construct: purchased Novo Nordisk A/S
# Sequence (P29600 whole entry): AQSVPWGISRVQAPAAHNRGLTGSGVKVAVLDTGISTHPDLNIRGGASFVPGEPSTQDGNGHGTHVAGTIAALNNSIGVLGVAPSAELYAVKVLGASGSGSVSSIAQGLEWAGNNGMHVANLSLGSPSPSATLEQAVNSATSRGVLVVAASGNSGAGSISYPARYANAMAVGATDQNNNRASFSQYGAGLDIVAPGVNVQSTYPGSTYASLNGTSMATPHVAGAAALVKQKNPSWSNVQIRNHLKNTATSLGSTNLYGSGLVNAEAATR
# test_method_notes: Determination of Ki, inhibition of Savinase
# Format: biochemical, Bacillus
recorded_metric: pKi
Would you please state pKi, meaning minus log10 of the concentration in mol/L, as a bare number?

Ask: Look up pKi for this compound: OB(O)O [Boric acid]
Reply: 1.70

---

# experimental_target: Alcalase (Bacillus licheniformis)
# Construct: purchased Novo Nordisk A/S
# Sequence (P00780 106-379): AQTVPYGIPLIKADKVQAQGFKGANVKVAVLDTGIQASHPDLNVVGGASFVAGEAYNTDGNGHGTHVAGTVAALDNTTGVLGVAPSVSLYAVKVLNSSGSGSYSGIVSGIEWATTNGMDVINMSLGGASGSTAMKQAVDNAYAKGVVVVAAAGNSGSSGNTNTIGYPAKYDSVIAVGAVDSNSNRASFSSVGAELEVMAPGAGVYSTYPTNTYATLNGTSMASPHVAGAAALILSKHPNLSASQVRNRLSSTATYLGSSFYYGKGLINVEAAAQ
# test_method_notes: Determination of Ki, inhibition of Alcalase
# Type: biochemical
# settings: substrate SAAPFpNA; 0.1M Tris-HCl pH 8.6; 25° C.; Alcalase 1×10^-10 - 3×10^-10 M; read-out: Ki Alcalase
recorded_metric: Ki (µM)
Number in µM, nothing else.

Ask: // query Ki value for entry OB(O)c1ccc2ccccc2c1
Reply: 400

Ask: Can you share its Ki? I mean this compound: OB(O)c1ccc2cc(O)ccc2c1 [6-hydroxynaphthalene-2-boronic acid]
Reply: 500

Ask: // query Ki value for entry OB(O)c1cccc2ccccc12
Reply: 500
